MEASUREMENT_TARGET: Phospholipid hydroperoxide glutathione peroxidase GPX4 (Homo sapiens)
TEST: Primary qHTS Assay for Inhibitors of Recombinant Selenoprotein Glutathione Peroxidase 4 (GPX4) (AID 1845192); note: nearly all actives have a fitted effect of over 65% in size
CONDITIONS: recombinant GPX4, GR-coupled NADPH fluorescence, 15 min; series mostly up to 50 µM
Records with an inconclusive call do not appear. Calls of active or inactive are those of the source. Calls come from the whole dose curve; as a rule, active = well fitted inhibition curve with a large enough effect; inconclusive = small, poorly fitted or top-dose-only effect; inactive = flat fitted curve, though single readings scatter.
Outcome field: choose from active, inactive

Example cases with answers are listed next.
Exercise: GET /call?item= NCCCC(N)(C(=O)O)C(F)F (configuration not stated) returns the recorded outcome of this test.
Key: inactive

Exercise: Note, next up: CC(C)OC(=O)C1=CN(C(=O)c2ccc(F)c(F)c2)CC(C)(C)c2c1[nH]c1ccccc21
Key: inactive

Exercise: Now the same for O=C1CCc2cc(OCCCCc3nnnn3C3CCCCC3)ccc2N1
Key: inactive

Exercise: Now consider C/C(=C\C(=O)Nc1ccccc1C(=O)O)c1ccc2ccccc2c1 .
Key: active

Exercise: Now consider COc1cc(Oc2ccnc3cc(OC)c(OC)cc23)ccc1NC(=O)NC(C)c1nccs1 (configuration not stated) .
Key: inactive

Exercise: COc1ccc(C2=N[C@H](c3ccc(Cl)cc3)[C@H](c3ccc(Cl)cc3)N2C(=O)N2CCNC(=O)C2)c(OC(C)C)c1 ?
Key: inactive

Exercise: How about this molecule: O=c1ncn2nc(Sc3ccc(F)cc3F)ccc2c1-c1c(Cl)cccc1Cl
Key: inactive

Exercise: Now give it for N#Cc1ccc(C(c2ccc(C#N)cc2)n2cncn2)cc1 too.
Key: inactive

Others:
Exercise: Identify the outcome logged in this assay for the molecule shown: NC(=O)c1ccc(I)c([N+](=O)[O-])c1
Key: inactive

Exercise: // query: CCC(C)(C)C(=O)O[C@H]1C[C@@H](C)C=C2C=C[C@H](C)[C@H](CC[C@@H]3C[C@@H](O)CC(=O)O3)[C@H]21
Key: inactive

Exercise: Now give it for Cc1csc(NC(=O)c2sc3nc4c(c(C(F)(F)F)c3c2N)CCC4)n1 too.
Key: inactive

Exercise: Same again, this time with NCCc1ccc(O)c(O)c1
Key: inactive

Exercise: Then Cc1cnc(NC(=O)C2=C(O)c3ccccc3S(=O)(=O)N2C)s1 ?
Key: inactive

Exercise: // next record COc1cc2nccc(Oc3ccc(NC(=O)NC4CC4)c(Cl)c3)c2cc1C(N)=O
Key: inactive

Exercise: O=C1CCCC2=C1C(c1[nH]ncc1Cl)N=C(Nc1nc3ccccc3o1)N2 (configuration not stated) , same question.
Key: inactive

Exercise: Quick one: CNC(=O)c1ccccc1Sc1ccc2c(/C=C/c3ccccn3)n[nH]c2c1
Key: inactive

Exercise: Lookup C1COC(NC(C2CC2)C2CC2)=N1
Key: inactive

Exercise: Please do the same for O=C(O)COCCN1CCN(C(c2ccccc2)c2ccc(Cl)cc2)CC1 (configuration not stated) as well.
Key: inactive

Exercise: And O=C(O)CCc1ccc(NCc2cccc(Oc3ccccc3)c2)cc1 ?
Key: inactive

Exercise: Next up: OC(CCN1CCCCC1)(c1ccccc1)C1CC2C=CC1C2 (configuration not stated)
Key: inactive

Exercise: Now consider CC(C)C[C@H](NC(=O)[C@@H](O)[C@H](N)Cc1ccccc1)C(=O)O .
Key: inactive

Exercise: NS(=O)(=O)c1cc2c(cc1Cl)NC=NS2(=O)=O , same question.
Key: inactive
